B1: LINE1-full (parent)
chain: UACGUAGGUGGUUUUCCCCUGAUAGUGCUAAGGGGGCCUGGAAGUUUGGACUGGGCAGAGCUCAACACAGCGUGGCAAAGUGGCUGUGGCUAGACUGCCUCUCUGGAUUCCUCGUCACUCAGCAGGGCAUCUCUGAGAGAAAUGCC

Variants of: B1
Assay: self-cleavage, relative activity (ratio to wild type); higher = more cleavage; in vitro, sequencing; the parent is a self-cleaving ribozyme
experimental endpoint: self-cleavage

Solved cases below.
mutation string: G40U U100C
self-cleavage: 0.46
--
mutation string: C95U U115C
self-cleavage: 0.54

Please give self-cleavage for each item listed below.
1. U13C U102C
2. A24U U81C
3. A59G U119A
4. C16A U96C

Response given:
1. 1.4
2. 1.24
3. 0.09
4. 0.04
